This collection of values is drawn from the supplement of paper PMC5998384.

# System: HeLa Kyoto;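 also: HeLa Kyoto cells synchronized by double thymidine or nocodazole block, proteins quantified by TMT10plex mass spectrometry, three independent biological replicates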
# test: melting temperature (median over replicates), in situ; higher = more thermally stable
# test-context: cell cycle stage: G1/S
readout: melting temperature (°C)
State the answer as a number, implicitly in °C.

Give its melting temperature value. Item: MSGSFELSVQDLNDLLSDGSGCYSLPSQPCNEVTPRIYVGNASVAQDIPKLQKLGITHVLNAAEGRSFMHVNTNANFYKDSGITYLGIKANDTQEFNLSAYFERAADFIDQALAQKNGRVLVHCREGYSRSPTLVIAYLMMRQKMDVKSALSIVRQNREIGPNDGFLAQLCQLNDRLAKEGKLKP [DUSP3] 50.4

Subsequent entry: MSEDLAKQLASYKAQLQQVEAALSGNGENEDLLKLKKDLQEVIELTKDLLSTQPSETLASSDSFASTQPTHSWKVGDKCMAVWSEDGQCYEAEIEEIDEENGTAAITFAGYGNAEVTPLLNLKPVEEGRKAKEDSGNKPMSKKEMIAQQREYKKKKALKKAQRIKELEQEREDQKVKWQQFNNRAYSKNKKGQVKRSIFASPESVTGKVGVGTCGIADKPMTQYQDTSKYNVRHLMPQ [SMNDC1] 57.7

Subsequent entry: MEAARTAVLRVKRKRSAEPAEALVLACKRLRSDAVESAAQKTSEGLERAAENNVFHLVATVCSQEEPVQPLLREVLRPSRDSQQRVRRNLRASAREVRQEGRYRVLSSRRSLGTTSSGQESEYTPGNPEAAGNSGFQLLDLVHEEGEPEAASAGSCKTSDPDVILCNSVELIRERLTVSEDGPGVRRQEEQKHDDYVYDIYYLETATPGWIENILSVQPYSQEWELVNDDQEPEDIYDDEDDENSENNWRNEYPEEESSDGDEDSRGSADYNSLSEEERGSSRQRMWSKYPLDVQKEFGYDSPHDLDSD [SLC7A6OS] 52.4

Subsequent entry: MVHQVLYRALVSTKWLAESIRTGKLGPGLRVLDASWYSPGTREARKEYLERHVPGASFFDIEECRDTASPYEMMLPSEAGFAEYVGRLGISNHTHVVVYDGEHLGSFYAPRVWWMFRVFGHRTVSVLNGGFRNWLKEGHPVTSEPSRPEPAVFKATLDRSLLKTYEQVLENLESKRFQLVDSRSQGRFLGTEPEPDAVGLDSGHIRGAVNMPFMDFLTEDGFEKGPEELRALFQTKKVDLSQPLIATCRKGVTACHVALAAYLCGKPDVAVYDGSWSEWFRRAPPESRVSQGKSEKA [TST] 48.3

Subsequent entry: MAAAVAAAGAGEPQSPDELLPKGDAEKPEEELEEDDDEELDETLSERLWGLTEMFPERVRSAAGATFDLSLFVAQKMYRFSRAALWIGTTSFMILVLPVVFETEKLQMEQQQQLQQRQILLGPNTGLSGGMPGALPSLPGKI [TOMM22] 53.4

Subsequent entry: MENGYTYEDYKNTAEWLLSHTKHRPQVAIICGSGLGGLTDKLTQAQIFDYGEIPNFPRSTVPGHAGRLVFGFLNGRACVMMQGRFHMYEGYPLWKVTFPVRVFHLLGVDTLVVTNAAGGLNPKFEVGDIMLIRDHINLPGFSGQNPLRGPNDERFGDRFPAMSDAYDRTMRQRALSTWKQMGEQRELQEGTYVMVAGPSFETVAECRVLQKLGADAVGMSTVPEVIVARHCGLRVFGFSLITNKVIMDYESLEKANHEEVLAAGKQAAQKLEQFVSILMASIPLPDKAS [PNP] 60.3
